List of pIC50 tested on Fatty acid-binding protein, heart (Homo sapiens, UniProt P05413).
Sequence (P05413 whole entry): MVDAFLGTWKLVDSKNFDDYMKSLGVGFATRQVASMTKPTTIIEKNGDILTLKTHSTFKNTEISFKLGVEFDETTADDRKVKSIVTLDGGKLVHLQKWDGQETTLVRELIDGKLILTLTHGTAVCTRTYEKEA
pIC50: −log10 of the molar value.

Solved entries:
entry_smiles	observed
O=C(O)COc1cccc(-c2ccccc2-c2cc(-c3ccccc3)n(-c3ccccc3)n2)c1	< 2.00
O=C(O)COc1ccccc1-c1cc(-c2ccc(Cl)cc2)n(-c2ccccc2)n1	< 2.00

Proceeding to the next compound to report its pIC50.
Consider the compound Cc1ccc(-c2cc(-c3ccccc3OCCCCC(=O)O)nn2-c2ccccc2)cc1 tested on Fatty acid-binding protein, heart (Homo sapiens, UniProt P05413); state its pIC50.
< 2.00

###

molecular target: Fatty acid-binding protein, adipocyte (Homo sapiens, UniProt P15090); conditions: read-out: IC50
Sequence (P15090 whole entry): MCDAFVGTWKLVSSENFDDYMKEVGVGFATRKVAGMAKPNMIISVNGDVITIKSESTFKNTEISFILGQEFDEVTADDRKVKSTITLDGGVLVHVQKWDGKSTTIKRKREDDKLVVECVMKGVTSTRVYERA
pIC50: −log10 of the molar value.
pIC50 vs 5: at or above is label 1, below is label 0.

Consider the following illustrative entries.
entry_smiles	system_under_test	class_assignment
O=C(O)CCCOc1ccccc1-c1cc(-c2ccccc2)n(-c2ccccc2Cl)n1	Fatty acid-binding protein, adipocyte (Homo sapiens, UniProt P15090)	label 1
O=C(O)CCCOc1ccccc1-c1cc(-c2ccccc2)n(-c2ccccc2)n1	Fatty acid-binding protein, adipocyte (Homo sapiens, UniProt P15090)	label 1
O=C(O)CCCOc1ccccc1-c1cc(-c2ccccc2)n(C2CCCCCC2)n1	Fatty acid-binding protein, adipocyte (Homo sapiens, UniProt P15090)	label 0
O=C(O)CCCOc1ccccc1-c1cc(-c2ccccc2)n(C2CCCC2)n1	Fatty acid-binding protein, adipocyte (Homo sapiens, UniProt P15090)	label 0

Now, please, on to the next compound.
Determine whether this compound has pIC50 no lower than 5: O=C(O)COc1ccccc1-c1cc(-c2ccc(Cl)cc2)n(-c2ccccc2)n1
label 0

Values were extracted from ChEMBL document CHEMBL2331161.
